system: Candida albicans; test: Growth inhibition of Candida albicans ATCC 90028 at 2 ug/ml incubated for 18 hrs at 35 degC by broth microdilution method relative to control; format: functional; conditions: ATCC 90028, 18 h, read-out: GI
reportedEndpoint: inhibition of growth at 2 µg/mL

compound | inhibition of growth at 2 µg/mL
CC(Cn1cnc2c1c(=O)n(C)c(=O)n2C)OCc1cn(-c2cccc3ccccc23)nn1 (centres undefined) | 99.8%
CC(Cn1cnc2c1c(=O)n(C)c(=O)n2C)OC(=O)CC(=O)c1ccc(F)cc1 (centres undefined) | 100%
CC(Cn1cnc2c1c(=O)n(C)c(=O)n2C)OC(=O)Nc1ccccc1 (centres undefined) | 100%

Enter measured inhibition of growth at 2 µg/mL, system Candida albicans, for the compound shown: CC(Cn1cnc2c1c(=O)n(C)c(=O)n2C)OC(=O)C1c2ccccc2-c2ccccc21 (centres undefined)
100%

Enter measured inhibition of growth at 2 µg/mL, system Candida albicans, for the compound shown: CC(Cn1cnc2c1c(=O)n(C)c(=O)n2C)OCc1cn(CCCn2nc3c(Br)c(Br)c(Br)c(Br)c3n2)nn1 (centres undefined)
99.9%
